Biological target: Neu5Ac(a2-6)Gal(b1-3)GlcNAc(b1-3)[Gal(b1-4)GlcNAc(b1-6)]Gal(b1-4)Glc
Test: glycan array binding signal (z-score within array); higher = stronger binding
Settings: glycan notation: IUPAC condensed, linker removed
The sample as a whole holds a higher share of the strongest signals than the screen did.
Quick rule: glycan array binding signal (z-score) of at least -0.5 means Yes, below that means No.

Field: example entries. Status: answers known.
SJCP1084 (Schistosoma japonicum) (protein) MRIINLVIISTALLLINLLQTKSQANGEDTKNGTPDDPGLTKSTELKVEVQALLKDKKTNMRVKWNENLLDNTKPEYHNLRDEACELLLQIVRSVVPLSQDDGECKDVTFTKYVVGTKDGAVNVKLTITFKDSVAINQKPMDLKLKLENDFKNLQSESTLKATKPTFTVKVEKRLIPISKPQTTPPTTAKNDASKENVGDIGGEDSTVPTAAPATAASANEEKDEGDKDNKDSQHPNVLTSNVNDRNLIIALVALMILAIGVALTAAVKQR :: Yes
LngA (Escherichia coli) (protein) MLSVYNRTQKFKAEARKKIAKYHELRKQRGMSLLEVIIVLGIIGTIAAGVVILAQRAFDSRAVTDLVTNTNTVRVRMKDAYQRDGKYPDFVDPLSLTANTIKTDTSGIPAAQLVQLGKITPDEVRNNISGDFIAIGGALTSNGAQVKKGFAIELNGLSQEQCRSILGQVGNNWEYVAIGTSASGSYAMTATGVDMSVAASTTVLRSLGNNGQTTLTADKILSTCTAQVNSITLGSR :: No
LlpA (Burkholderia cenocepacia) (protein) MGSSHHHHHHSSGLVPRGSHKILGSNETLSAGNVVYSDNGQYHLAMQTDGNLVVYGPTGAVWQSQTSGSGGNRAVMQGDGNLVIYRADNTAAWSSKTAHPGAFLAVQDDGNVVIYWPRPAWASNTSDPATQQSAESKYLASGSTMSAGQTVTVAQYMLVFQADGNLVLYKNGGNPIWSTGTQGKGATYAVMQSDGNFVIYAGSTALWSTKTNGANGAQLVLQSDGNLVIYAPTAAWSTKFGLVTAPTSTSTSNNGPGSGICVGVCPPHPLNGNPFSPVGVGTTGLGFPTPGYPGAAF :: No
RBMC1 (Vibrio cholerae) (protein) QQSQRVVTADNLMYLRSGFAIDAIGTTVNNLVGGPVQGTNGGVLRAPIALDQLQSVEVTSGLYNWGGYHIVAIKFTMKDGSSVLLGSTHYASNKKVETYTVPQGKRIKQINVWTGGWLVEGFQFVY :: Yes

Ask: Hi, just wondering whether AFL (Aspergillus fumigatus), Q4WW81 (protein) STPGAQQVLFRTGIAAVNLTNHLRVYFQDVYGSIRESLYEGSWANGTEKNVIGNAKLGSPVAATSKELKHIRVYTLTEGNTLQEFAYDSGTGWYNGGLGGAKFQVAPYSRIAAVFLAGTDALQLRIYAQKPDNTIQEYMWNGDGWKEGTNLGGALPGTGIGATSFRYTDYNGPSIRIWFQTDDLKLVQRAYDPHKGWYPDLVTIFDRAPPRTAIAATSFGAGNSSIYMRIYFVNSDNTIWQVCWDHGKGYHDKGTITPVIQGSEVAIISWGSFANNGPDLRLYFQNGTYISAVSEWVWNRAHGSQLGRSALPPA shows glycan array binding signal (z-score) of -0.5 or higher.
Reply: Yes
